# Test system: parent strain (SAWy518)
This listing pairs compounds with measured Offscreen_24hr.
recorded endpoint: Offscreen_24hr

> print(dat)
                                   compound  recorded.number
1  CO[C@H]1O[C@@H]2O[C@@]3(C)CC[C@H]4[C@H](C)CC[C@@H]([C@H]1C)[C@@]24OO3           0.4688
2                O=C(O)Cc1ccc(-c2ccccc2)cc1           0.7657
3  O=[N+]([O-])c1ccc(CNc2nc(NCc3cccc(C(F)(F)F)c3)nc3[nH]cnc23)cc1            0.895
4  O=c1c(O)c(-c2ccc(O)c(O)c2)oc2cc(O)cc(O)c12 [Quercetin, reference compound]           0.8789
5  COc1ncc(-c2ccc3nccc(-c4ccnnc4)c3c2)cc1NS(=O)(=O)c1ccc(F)cc1F [GSK2126458]           0.8997
6        COc1cc(C)c2c(=O)cc(-c3ccccc3)oc2c1           0.8867
7  Cc1ccc(S(=O)(=O)N[C@@H](Cc2ccccc2)C(=O)CCl)cc1           0.8725
8      O=c1cc(-c2ccc(O)cc2)oc2cc(O)cc(O)c12           0.8699
9     C/C=C(/C(=C/C)c1ccc(O)cc1)c1ccc(O)cc1           0.8973
